Provide the reported IC50 of each item.
- ASSAYED_SYSTEM: human NaP2b (SLC34A2) (Homo sapiens)
- Construct: host or cells: HEK293
- Sequence (O95436 whole entry): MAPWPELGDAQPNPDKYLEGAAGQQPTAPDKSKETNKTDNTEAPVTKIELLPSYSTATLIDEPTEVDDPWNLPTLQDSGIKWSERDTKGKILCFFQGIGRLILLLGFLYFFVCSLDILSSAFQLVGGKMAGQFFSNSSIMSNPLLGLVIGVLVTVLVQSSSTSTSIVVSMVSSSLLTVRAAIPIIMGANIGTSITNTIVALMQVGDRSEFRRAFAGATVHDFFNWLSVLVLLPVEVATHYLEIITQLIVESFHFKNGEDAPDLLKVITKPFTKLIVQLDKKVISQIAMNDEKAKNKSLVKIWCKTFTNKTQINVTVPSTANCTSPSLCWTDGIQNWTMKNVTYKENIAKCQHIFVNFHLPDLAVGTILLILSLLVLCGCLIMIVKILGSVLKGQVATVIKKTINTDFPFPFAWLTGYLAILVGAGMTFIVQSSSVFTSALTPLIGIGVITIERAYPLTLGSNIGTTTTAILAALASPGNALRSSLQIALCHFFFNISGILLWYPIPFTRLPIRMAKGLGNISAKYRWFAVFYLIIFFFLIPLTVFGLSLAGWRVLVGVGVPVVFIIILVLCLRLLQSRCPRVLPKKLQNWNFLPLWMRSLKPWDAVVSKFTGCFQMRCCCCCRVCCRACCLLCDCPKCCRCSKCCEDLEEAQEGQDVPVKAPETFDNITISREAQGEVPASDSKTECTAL
- ASSAY_TEXT: Inhibition of NaP2b-mediated Pi (33P) uptake in transfected HEK293 cells, human NaP2b
- Type: cell-based
- ASSAY_CONTEXT: HEK293 cells transfected with human NaP2b, 100 uM phosphate, 0.1 nM to 30 uM, read-out: pIC50 range for human NaP2b (converted)

Which value of IC50 has been reported for CCN(CC)c1ccc(NC(=O)c2cccc(CCCOCCOCCOCCOCCC(=O)NCCOCCOCCOCCOCCOCCOCCOC)c2)c(-c2cc(C(=O)NCc3cccc(C(F)(F)F)c3)ccn2)c1 [Example 260] in the records?
< 1000 nM

Next up: O=C(O)CCSCc1cccc(C(=O)Nc2ccc(N3CCCCC3)cc2-c2cc(C(=O)NCc3cccc(C(F)(F)F)c3)ccn2)c1 [Example 1.1]
1000 to 7940 nM

Moving on to the next molecule: CCN(CC)c1ccc(NC(=O)c2cccc(COCCOCCOCCOCCOC(=O)NC(CO)(CO)CO)c2)c(-c2cc(C(=O)NCc3cccc(C(F)(F)F)c3)ccn2)c1 [Example 177]
1000 to 7940 nM

====

Kindly supply the reported IC50 values for the records listed here.
- ASSAYED_SYSTEM: rat NaP2b (SLC34A2) (Rattus norvegicus)
- Construct: host or cells: HEK293
- Sequence (Q9JJ09 1-695): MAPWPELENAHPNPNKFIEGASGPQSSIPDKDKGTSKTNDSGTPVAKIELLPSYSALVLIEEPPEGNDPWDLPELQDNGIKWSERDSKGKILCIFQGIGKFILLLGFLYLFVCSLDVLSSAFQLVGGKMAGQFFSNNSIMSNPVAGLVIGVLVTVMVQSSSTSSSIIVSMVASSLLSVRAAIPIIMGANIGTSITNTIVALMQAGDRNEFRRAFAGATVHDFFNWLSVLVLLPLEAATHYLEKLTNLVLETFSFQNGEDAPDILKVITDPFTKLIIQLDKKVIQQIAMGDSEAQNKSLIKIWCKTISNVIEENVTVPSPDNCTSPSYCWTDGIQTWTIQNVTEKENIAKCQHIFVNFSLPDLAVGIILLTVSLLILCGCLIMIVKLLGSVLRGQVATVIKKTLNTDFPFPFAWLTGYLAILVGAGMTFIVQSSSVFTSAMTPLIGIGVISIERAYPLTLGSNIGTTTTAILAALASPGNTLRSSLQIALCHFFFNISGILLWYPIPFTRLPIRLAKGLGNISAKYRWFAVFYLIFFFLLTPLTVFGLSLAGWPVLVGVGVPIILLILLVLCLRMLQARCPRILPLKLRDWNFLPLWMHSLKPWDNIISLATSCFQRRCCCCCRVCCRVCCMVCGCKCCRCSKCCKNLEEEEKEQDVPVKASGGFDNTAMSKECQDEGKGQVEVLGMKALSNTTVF
- ASSAY_TEXT: Inhibition of NaP2b-mediated Pi (33P) uptake in transfected HEK293 cells, rat NaP2b
- Format: cell-based
- ASSAY_CONTEXT: HEK293 cells transfected with rat NaP2b, 100 uM phosphate, 0.1 nM to 30 uM, read-out: pIC50 range for rat Nap2b (converted)

Could you share which IC50 value was measured for CC(=O)N1CCN(Cc2cccc(C(=O)Nc3ccc(N4CCCCC4)cc3-c3cc(C(=O)NCc4cccc(C(F)(F)F)c4)ccn3)c2)CC1 ?
1 to 7.94 µM

Same thing, different compound: CN(CCN1CCOCC1)C(=O)c1cccc(C(=O)Nc2ccc(OC3CCC3)cc2-c2cc(C(=O)NCc3cccc(C(F)(F)F)c3)ccn2)c1
1 to 7.94 µM

Similarly, CC(=O)N1CCCN(Cc2cccc(C(=O)Nc3ccc(N4CCCCC4)cc3-c3cc(C(=O)NCc4cccc(C(F)(F)F)c4)ccn3)c2)CC1 ?
1 to 7.94 µM

Moving on to CCN(CC)c1ccc(NC(=O)c2cccc(COCCOCCOCCOCCOCCOCCOC(=O)NCCOCCOCCOCCOCCOCCOCCOC)c2)c(-c2cc(C(=O)NCc3cccc(C(F)(F)F)c3)ccn2)c1
1 to 7.94 µM

Now the compound O=C(O)CCSCc1cccc(C(=O)Nc2ccc(N3CCOCC3)cc2-c2cc(C(=O)NCc3cccc(C(F)(F)F)c3)ccn2)c1
10 to 31.6 µM

How about this compound: COCCOc1ccc(NC(=O)c2cccc(CSCCC(=O)O)c2)c(-c2cc(C(=O)NCc3cccc(C(F)(F)F)c3)ccn2)c1
10 to 31.6 µM

Again, but for O=C(O)CCSCc1cccc(C(=O)Nc2ccc(N3CCCCC3)cc2-c2cc(C(=O)NCCCCCCCCCCCCNC(=O)c3ccnc(-c4cc(N5CCCCC5)ccc4NC(=O)c4cccc(CSCCC(=O)O)c4)c3)ccn2)c1
10 to 31.6 µM

And what about the compound CC(=O)NC1CCN(Cc2cccc(C(=O)Nc3ccc(N4CCCCC4)cc3-c3cc(C(=O)NCc4cccc(C(F)(F)F)c4)ccn3)c2)CC1 ?
10 to 31.6 µM

And then O=C(O)CCSCc1cccc(C(=O)Nc2ccc(N3CC4CCCC4C3)cc2-c2cc(C(=O)NCc3cccc(C(F)(F)F)c3)ccn2)c1 (centres unmarked) , what is it?
1 to 7.94 µM

One more compound: CN(Cc1cccc(C(=O)Nc2ccc(N3CCCCC3)cc2-c2cc(C(=O)NCc3cccc(C(F)(F)F)c3)ccn2)n1)C(=O)CN1CCOCC1
1 to 7.94 µM

O=C(O)CCSCc1cccc(C(=O)Nc2ccc(Oc3ccccc3)cc2-c2cc(C(=O)NCc3cccc(C(F)(F)F)c3)ccn2)c1 , same question.
1 to 7.94 µM
